- Assay Explanation: Antiinflammatory activity in PMA-differentiated human U937 cells assessed as inhibition of LPS-stimulated TNF-alpha secretion at 125 uM preincubated for 2 hrs followed by LPS-stimulation measured after 24 hrs by ELISA relative to control
- Format: functional
- Condition: U-937
inhibition at 125 µM values, listed per item
Response body: numeric value in %, unit text excluded.

Examples with their reported inhibition at 125 µM follow.
{"columns": ["Molecule", "Unit Tag", "inhibition at 125 µM"],
 "data": [
  ["CCOC(=O)Cc1ccc(O)c(OC)c1", "%", 0.1],
  ["CCOC(=O)C(c1ccc(O)c(OC)c1)C(c1ccc(O)c(OC)c1)c1ccc(O)c(OC)c1 (centres undefined)", "%", 15.7],
  ["COc1cc(C(O)C(=O)O)ccc1O (centres undefined)", "%", 0],
  ["COc1cc(C(CO)C(c2ccc(O)c(OC)c2)c2ccc(O)c(OC)c2)ccc1O (centres undefined)", "%", 19.8],
  ["COc1cc(CCO)ccc1O", "%", 6],
  ["COc1cc(Cc2ccc(O)c(OC)c2)ccc1O", "%", 7.6],
  ["COc1cc(CC(=O)O)ccc1O [HOMOVANILLIC ACID]", "%", 0],
  ["CCOC(=O)C(=C(c1ccc(O)c(OC)c1)c1ccc(O)c(OC)c1)c1ccc(O)c(OC)c1", "%", 92.3]
]}

Could you now consider this next molecule?
Exercise: Identify measured inhibition at 125 µM corresponding to CCOC(=O)C(O)c1ccc(O)c(OC)c1 (centres undefined)
Solution: 0
